- target-or-test-system: engineered MATH domain of SPOP (Speckle-type POZ protein), residues 1-182, cysteine residues substituted to serine (UniProt O43791)
- method: stopped-flow fluorescence binding kinetics + other: stopped-flow fluorescence displacement; KD calculated by combining kon of the pseudo-first-order plots with koff of the displacement experiments; 298 K
Where no end group is shown, it is not given here. The star is where a group is joined. Dansyl = CN(C)c1cccc2c(S(=O)(=O)*)cccc12
value-kind: Kd (µM)

[P] Dansyl-KAASADSTTEGTPAD [dansylated peptide mimicking MacroH2A (region 166-179)]
[Q] Dansyl-DEVTSTTSSS [dansylated peptide mimicking Puc (region 96-105)]
API: POST /compare with P and Q ; response names the item with higher Kd. Answer by quoting the chosen item's label.
P
(P: 7.8 µM, Q: 1.4 µM)
